experiment: self-splicing fitness, log relative to wild type (ln ratio); higher = more splicing; Tetrahymena group I intron in knt gene, E. coli kanamycin selection, DiMSum; sequences stand for … in CUCUCU…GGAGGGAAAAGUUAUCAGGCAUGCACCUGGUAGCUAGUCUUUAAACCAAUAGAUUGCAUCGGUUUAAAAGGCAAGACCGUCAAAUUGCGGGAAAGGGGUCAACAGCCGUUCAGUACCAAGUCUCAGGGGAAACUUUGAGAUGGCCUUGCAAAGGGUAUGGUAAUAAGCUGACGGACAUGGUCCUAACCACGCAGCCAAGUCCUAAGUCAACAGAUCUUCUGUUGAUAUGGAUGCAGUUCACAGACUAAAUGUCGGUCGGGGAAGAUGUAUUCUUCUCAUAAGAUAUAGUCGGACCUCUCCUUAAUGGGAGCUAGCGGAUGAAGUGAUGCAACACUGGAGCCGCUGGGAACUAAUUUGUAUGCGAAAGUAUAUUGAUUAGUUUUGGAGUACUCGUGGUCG;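 also: selection with 25 µg/mL kanamycin versus none on LB agar overnight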
condition-context: 30 °C
quantity: self-splicing fitness (ln)
Please reply with the number alone, leaving off any unit.

Challenge: Fill in: self-splicing fitness (ln) of AAAUAGCAAUAUUACGUGAA is ___
Response given: -3.08

Challenge: Fill in: self-splicing fitness (ln) of GCAAAGCAAUAUUACGUAUA is ___
Response given: -1.65

Challenge: Fill in: self-splicing fitness (ln) of GGACAGCAAUAUUACGUCGU is ___
Response given: -1.45

Challenge: Fill in: self-splicing fitness (ln) of CCACAGCAAUAUUACGUCUA is ___
Response given: -3.53

Challenge: Fill in: self-splicing fitness (ln) of ACGUAGCAAUAUUACGGCUU is ___
Response given: 0.0669

Challenge: Fill in: self-splicing fitness (ln) of UGUCAGCAAUAUUACGAACC is ___
Response given: -0.269

Challenge: Fill in: self-splicing fitness (ln) of AGCUAGCAAUAUUACGUAUC is ___
Response given: -3.55

Challenge: Fill in: self-splicing fitness (ln) of UUUUAGCAAUAUUACGAUAU is ___
Response given: -2.66

Challenge: Fill in: self-splicing fitness (ln) of AUUCAGCAAUAUUACGAGCU is ___
Response given: -1.21

Challenge: Fill in: self-splicing fitness (ln) of GUUCAGCAAUAUUACGUCGA is ___
Response given: -0.842

Challenge: Fill in: self-splicing fitness (ln) of CCCUAGCAAUAUUACGUACG is ___
Response given: -2.86

Challenge: Fill in: self-splicing fitness (ln) of GGCAAGCAAUAUUACGUCCU is ___
Response given: -1.39

Challenge: Fill in: self-splicing fitness (ln) of UAGCAGCAAUAUUACGUAAA is ___
Response given: -1.73

Challenge: Fill in: self-splicing fitness (ln) of UGGGAGCAAUAUUACGGUCU is ___
Response given: -4.3

Challenge: Fill in: self-splicing fitness (ln) of UCGCAGCAAUAUUACGUCGC is ___
Response given: -3.2

Challenge: Fill in: self-splicing fitness (ln) of AGUGAGCAAUAUUACGGUAG is ___
Response given: -3.02
